Overview of reported pEC50 across a group of compounds:
- target entity: human a7 nAChR (Homo sapiens, UniProt P36544)
- Construct: catalogue number not given
- Sequence (P36544 23-502): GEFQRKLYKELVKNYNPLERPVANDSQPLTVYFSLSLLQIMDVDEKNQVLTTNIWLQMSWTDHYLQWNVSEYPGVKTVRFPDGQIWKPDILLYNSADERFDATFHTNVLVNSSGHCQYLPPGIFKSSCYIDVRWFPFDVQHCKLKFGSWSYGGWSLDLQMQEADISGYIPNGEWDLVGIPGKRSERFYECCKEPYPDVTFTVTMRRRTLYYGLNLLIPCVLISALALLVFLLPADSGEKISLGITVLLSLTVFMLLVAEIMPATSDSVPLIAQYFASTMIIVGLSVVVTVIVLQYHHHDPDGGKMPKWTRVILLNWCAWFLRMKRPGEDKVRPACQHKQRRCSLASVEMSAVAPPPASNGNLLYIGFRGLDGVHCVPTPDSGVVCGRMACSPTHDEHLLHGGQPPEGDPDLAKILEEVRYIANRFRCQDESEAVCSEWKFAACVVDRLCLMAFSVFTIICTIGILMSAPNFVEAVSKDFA
- assay info: automated patch-clamp electrophysiology functional assay (Assay A), IonFlux HT
- Assay type: cell-based
- protocol conditions: HEK cell line stably expressing human RIC-3 and human a7; whole-cell population patch; 40 μM acetylcholine; read-out: a7 nAChR EC50
pEC50: −log10 of the molar value.
measurement name: pEC50

CCOc1ccc([C@H](COC)NC(=O)C2CC23CCc2ccccc23)cc1 (mixture of isomers) [Example 1] : 5.35
CCOc1ccc([C@@H](NC(=O)C2CC23COc2ccc(F)cc23)C(F)F)cn1 (stereo in doubt) [Example A12] : 5.52
CCOc1ccc([C@H](COC)NC(=O)[C@@H]2C[C@]23CCc2ccccc23)cc1 [Example 3] : 6.16
O=C(N[C@@H](CO)C1CCCCC1)C1CC12CCc1ccc(F)cc12 (stereo partly drawn) [Example A4] : 5.92
CCOc1ccc([C@H](CF)NC(=O)C2CC23COc2ccc(F)cc23)cn1 (stereo in doubt) [Example A13] : 6.10
O=C(NC1(c2ccc(F)cc2)COC1)C1CC12CCc1ccccc12 (racemic) [Example A1] : 5.49
CCOc1ccc([C@H](COC)NC(=O)C2CC23CCCc2ccccc23)cc1 (single isomer, unassigned) [Example B1] : 6.13
CCOc1ccc([C@H](COC)NC(=O)C2CC23CCc2cc(F)ccc23)cc1 (single isomer, unassigned; diastereomer b) [Example 4] : 6.23
CCOc1ccc([C@H](CO)NC(=O)C2CC23CCc2ccc(F)cc23)cn1 (stereo partly drawn) [Example A5] : 5.85
O=C(NC1(c2ccc(F)cc2)COC1)C1CC12COc1ccccc12 (stereo not drawn) [Example A9] : 5.96
CCOc1ccc(C(CO)NC(=O)C2CC23COc2ccc(F)cc23)cn1 (stereo not drawn) [Example A11] : 5.24
CCOc1ccc([C@H](COC)NC(=O)C2CC23COc2ccc(F)cc23)cc1 (single isomer, unassigned; diastereomer d) [Example 5] : 6.32
O=C(N[C@@H](CO)C1CCCCC1)C1CC12COc1ccccc12 (stereo partly drawn) [Example A8] : 6.20
O=C(N[C@@H](CO)C1CCCCC1)C1CC12COc1ccc(F)cc12 (stereo in doubt) [Example A15] : 6.11
CCOc1ccc([C@H](COC)NC(=O)C2CC23CCc2ccc(F)cc23)cc1 (single isomer, unassigned) [Example A2] : 5.80
CCOc1ccc([C@H](COC)NC(=O)C2CC23CCc2ccc(F)cc23)cc1 (single isomer, unassigned) [Example A3] : 6.15
CCOc1ccc([C@H](COC)NC(=O)C2CC23CCc2ccccc23)cc1 (mixture of isomers) [Example 2] : 6.38
COc1cc(C2(NC(=O)C3CC34COc3ccc(F)cc34)CC2)ccn1 (stereo not drawn) [Example A17] : 5.64
